Examples of compounds with documented inhibition follow.
target: 6-phosphogluconate dehydrogenase, decarboxylating (Homo sapiens) (UniProt P52209); assay: 6PGD enzyme inhibitors, primary screen, biochemical, human, recombinant enzyme, NADPH absorbance (AID 1159550); conditions: recombinant 6PGD, NADPH absorbance 341 nm; at 10 µM; hits give high values
Sequence (P52209 whole entry, looked up): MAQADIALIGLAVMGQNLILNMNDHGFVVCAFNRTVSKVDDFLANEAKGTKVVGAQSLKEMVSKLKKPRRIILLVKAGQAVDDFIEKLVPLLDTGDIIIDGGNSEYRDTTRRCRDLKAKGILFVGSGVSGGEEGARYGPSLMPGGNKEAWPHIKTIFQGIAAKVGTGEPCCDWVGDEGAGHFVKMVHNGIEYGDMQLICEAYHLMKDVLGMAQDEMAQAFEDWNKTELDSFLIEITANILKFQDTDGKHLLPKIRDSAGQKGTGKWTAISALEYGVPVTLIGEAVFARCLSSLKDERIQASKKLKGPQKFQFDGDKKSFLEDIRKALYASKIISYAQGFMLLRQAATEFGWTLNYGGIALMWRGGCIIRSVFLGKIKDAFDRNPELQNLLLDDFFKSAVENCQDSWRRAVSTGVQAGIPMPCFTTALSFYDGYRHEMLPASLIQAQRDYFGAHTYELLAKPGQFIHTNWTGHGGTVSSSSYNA
Please respond with the number in % and leave the unit unwritten.

{"columns": ["Compound", "Value Observed"],
 "data": [
  ["Nc1ncnc2c1ncn2[C@@H]1O[C@H](CO)[C@@H](O)[C@@H]1O", -15.7],
  ["COc1cccc(-c2cc(=O)c3ccc(OC)cc3o2)c1", -2.44],
  ["N.N.O=C([O-])C1(C(=O)[O-])CCC1.[Pt+2]", -2.44]
]}

Kindly consider the entry below.
So for COC1[C@H](O)[C@@H](O)C(O)[C@H](O)[C@H]1O (some centres undefined) , the logged inhibition turned out to be -7.09

---

assay: growth inhibition of GSK3B-pretreated HCT116 cells – cell-based, CellTiter-Glo, 0.2 to 20 µM (AID 1117336); details: HCT116 viability after GSK3B inhibitor, at 20 µM, hits give high values
Property Name: viability decrease (%)
Respond numerically; units are % and should not be typed.

Previously resolved entries follow.
{"columns": ["Structure Smiles", "Value Observed"],
 "data": [
  ["O=C(O)C(=O)Nc1cccc(-c2nn[nH]n2)c1", 19.5],
  ["CC(C)c1c(C(=O)Nc2ccccc2)c(-c2ccccc2)c(-c2ccc(F)cc2)n1CC[C@@H](O)C[C@@H](O)CC(=O)O", 95.5],
  ["C[C@@H]1C[C@H]2[C@@H]3CCC4=CC(=O)C=C[C@]4(C)[C@@]3(Cl)[C@@H](O)C[C@]2(C)[C@@]1(OC(=O)c1ccco1)C(=O)CCl", -43],
  ["NS(=O)(=O)c1cc(Cl)c(Cl)c(S(N)(=O)=O)c1", 1]
]}

Let us move to another entry and its viability decrease.
Lab note: CO[C@]1(NC(=O)CSC(F)F)C(=O)N2C(C(=O)O)=C(CSc3nnnn3CCO)CO[C@H]21 gave viability decrease of 11.4

---

assay: inhibition of 3D7 malaria parasite growth – strain 3D7 (AID 2306);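 further: 0% = DMSO wells and 100% = chloroquine plus artemisinin control wells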; settings: P. falciparum 3D7 erythrocytic growth, LDH absorbance, 72 h; at 2 µM; hits give high values
As shown below, each of these molecules has a reported growth inhibition value.
Numbers only here, please. The scale is %.

Please review the entries below; each comes with its answer.
{"columns": ["Structure Smiles", "Value Observed"],
 "data": [
  ["O=C(NC1CCN(Cc2ccccc2)CC1)c1ccc(-c2nc3cc(F)c(F)cc3[nH]2)s1", 101],
  ["CC(C)(C)c1ccc(N2C(N)=NC(N)=NC2(C)C)cc1", 93],
  ["O=C(Nc1ccc(CN2CCN(S(=O)(=O)c3ccc(Cl)s3)CC2)cc1)c1cccs1", 92],
  ["N#Cc1cccc(NC(=O)Nc2ccc(-c3cccc(-c4nc5ccc(F)cc5[nH]4)c3)cc2)c1", 102]
]}

As a next step, examine the molecule that follows.
GET /value?item= CCCn1c(Sc2ccc(C#N)c([N+](=O)[O-])c2)nnc1-c1cc(OC)cc(OC)c1 &field=growth inhibition returns 98

---

This listing pairs compounds with measured inhibition.
tested on: Hepatitis C virus NS3 helicase; experiment: HCV NS3 helicase inhibitors, primary screen, biochemical, fluorescence polarization, LOPAC1280 library (AID 687035); conditions: Purified HCV NS3 helicase, Cy5-dT15 ssDNA binding fluorescence polarization; hits give high values; concentration not given here
Supply the numeric figure in %, leaving out any unit text.

Field inhibition (Hepatitis C virus NS3 helicase), entry O=C(O)c1cc(=O)c2ccccc2[nH]1 : -6

Note to self: inhibition of NC(=NCc1ccccc1)NC(=O)c1nc(Cl)c(N)nc1N with Hepatitis C virus NS3 helicase was -1

With Hepatitis C virus NS3 helicase as the test system, CN(C)CCC(c1ccc(Cl)cc1)c1ccccn1 (configuration not stated) showed inhibition of -6

Lab entry: Hepatitis C virus NS3 helicase assay, compound C[C@]12CC[C@@H]3c4ccc(O)cc4CC[C@H]3[C@@H]1CC[C@@H]2O , inhibition = -3

Observed inhibition, Hepatitis C virus NS3 helicase, CCn1ccnc1CC1COc2ccccc2O1 (configuration not stated) : -4

Param item: Cc1cc(C)c(/C=C2\C(=O)Nc3ccccc32)[nH]1 ; param system: Hepatitis C virus NS3 helicase; output inhibition: 6

Given the compound CC(C)(C)c1ccc(C(=O)CCCN2CCC(OC(c3ccccc3)c3ccccc3)CC2)cc1 and test system Hepatitis C virus NS3 helicase, the measured inhibition is 3
